Data credit: paper PMC9482650

target: DLG2_2, Q15700; assay: holdup assay; parameters: key: below the threshold = too weak to quantify, mostly under pKd 3.1 to 4; settings: plain residues with an end cap or a label only (N-terminal biotin on a linker: ahx)
Sequence (Q15700 189-283): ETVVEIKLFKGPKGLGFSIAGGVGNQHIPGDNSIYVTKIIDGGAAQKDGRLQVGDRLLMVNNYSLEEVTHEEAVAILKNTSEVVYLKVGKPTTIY
ASSAY ENDPOINT: pKd

The following binders have reported results that may help.
>>> data_value("AKPQPVDSWV [ARVCF, O00192]")
"below the threshold"
>>> data_value("SAPATLSSRA [PDLIM2, Q96JY6]")
"below the threshold"
>>> data_value("KEYDDELTFF [USH1C, Q9Y6N9]")
"below the threshold"
>>> data_value("VNENQKEYFF [CNTNAP4, Q9C0A0]")
"below the threshold"
>>> data_value("PKMKLNETSF [SHKBP1, Q8TBC3]")
"below the threshold"

Continue with the next binder.
Recorded pKd (binder SKKNELFSNL [NHERF1, O14745] ): below the threshold
